Tested on: HEK-293T
Assay: Incucyte cell viability with HEK293T; also: unitless GR value; below 1 slowed growth and below 0 cell loss
Assay type: toxicity, cell-based
Settings: human, 12 h, 10 µM, compound concentration 10 uM, replicate number 2
# note: boundary value 0.6 maps to not satisfied; Growth Rate below it maps to satisfied

molecule | class
N[C@@H](CC(=O)O)Cn1nnc(-c2ccc(Oc3ncc(Cl)cc3F)cc2)n1 | satisfied
Cc1cc(C)nc(Nc2ncc(C(=O)NCCc3c(C)[nH]c4ccccc34)cn2)c1.Cl | not satisfied
CCN1C(=CC(C)=O)Sc2ccc(OC)cc21 | satisfied
COc1cc([N+](=O)[O-])ccc1NC(=O)c1ccccc1O | satisfied
CCn1cnc2c(-c3ccc(F)c(-c4ccc(S(=O)(=O)CC)cc4OC)c3)cnnc21 [DARIGABAT] | satisfied
CC(C)(C)c1cc(NC(=O)c2csc(Nc3ccc(Cl)cc3)n2)no1 | not satisfied
Cc1cc(OC2CCS(=O)(=O)CC2)cc(C)c1-c1cccc(COc2ccc(C(=O)O)c(F)c2)c1 | not satisfied
CCc1cc2c(cc1N1CCC(N3CCOCC3)CC1)C(C)(C)c1[nH]c3cc(C#N)ccc3c1C2=O [ALECTINIB] | not satisfied
